Data provenance is a melting point compilation (Tetko et al.).

Listed compounds paired with reported melting point

[[record]]
compound = "CC(=CC(=O)O)c1ccccc1"
result = "93 to 95 °C"

[[record]]
compound = "Cn1c(-c2ccccc2)c(Br)c2ccccc21"
result = "59 to 61 °C"

[[record]]
compound = "CCN1C(=O)CC(=O)NC1=O"
result = "118 to 120 °C"

[[record]]
compound = "Sc1nc2ncccn2n1"
result = "234 to 236 °C"


Please give measured melting point of the following entry: `NC(=O)c1cccc(Cl)n1`
124 to 126 °C

Please give measured melting point of the following entry: `Nc1ccn(CCc2ccncc2)n1`
140 to 142 °C

Please give measured melting point of the following entry: `CN(C)Cc1c(O)ccc2c1CCCC2`
77 to 79 °C

Please give measured melting point of the following entry: CC(C)(C)OC(=O)N1CC(O)CC1C(=O)O (stereo not given)
145 to 147 °C

Please give measured melting point of the following entry: `Brc1cccn2cnnc12`
184 to 186 °C

Please give measured melting point of the following entry: CC(C)NS(=O)(=O)C1CCNC1 (stereo not given)
104 to 106 °C

###

Listed molecules paired with reported melting point

In the examples that follow, each entry is paired with its recorded melting point.
[[record]]
molecule = "Cc1ccc(NC(=O)CCl)cc1Br"
result = "180 to 181 °C"

[[record]]
molecule = "COc1ccc(C(N)Cc2ccccc2C)cc1OC (centres undefined)"
result = "49 to 51 °C"

[[record]]
molecule = "CN(C)S(=O)(=O)c1ccc2[nH]c(=O)c(=O)[nH]c2c1"
result = "319 to 321 °C"

[[record]]
molecule = "O=C(O)c1cccc(N2C(=O)CCC2=O)c1"
result = "237 to 239 °C"


Please give measured melting point of the following entry: CC1CCC(NS(=O)(=O)CC(=O)O)CC1 (centres undefined)
116 to 118 °C

Please give measured melting point of the following entry: `Cc1c(C(N)=O)sc2nc[nH]c(=O)c12`
283 to 285 °C

Please give measured melting point of the following entry: CC(C)(C)OC(=O)NCCNC(=O)C1CCCNC1 (centres undefined)
130 to 132 °C

Please give measured melting point of the following entry: `CCN(c1ccccc1)S(=O)(=O)c1ccc(Cl)c([N+](=O)[O-])c1`
122 to 124 °C

Please give measured melting point of the following entry: `O=C(O)c1cc(Cl)ccc1Sc1ccc(Cl)cc1`
158 to 160 °C

###

Attribute Measured: melting point

Please give measured melting point of the following entry: `O=C(O)CSC1=NS(=O)(=O)c2ccccc21`
213 to 215 °C

Please give measured melting point of the following entry: `Cc1cc(N)ccc1Oc1cccnc1`
90 to 92 °C

Please give measured melting point of the following entry: `CCNC(=O)Nc1cccc(N)c1`
122 to 124 °C

###

Listed compounds paired with reported melting point

In the examples that follow, each entry is paired with its recorded melting point.
[[record]]
compound = "O=C(O)c1c(F)cc(OC(F)F)cc1F"
result = "106 to 108 °C"

[[record]]
compound = "CC(C)(C)OC(=O)Nc1cn[nH]c1"
result = "179 to 181 °C"

[[record]]
compound = "O=C(O)C1=NN(c2nc3ccccc3[nH]2)C(=O)CC1"
result = "328 to 330 °C"


Please give measured melting point of the following entry: `O=C(O)c1cnc(-c2ccco2)s1`
237 to 239 °C

Please give measured melting point of the following entry: `O=c1cc(O)c2ccccc2o1`
211 to 215 °C

Please give measured melting point of the following entry: `O=S(=O)(F)c1ccc(Br)cn1`
92 to 94 °C

Please give measured melting point of the following entry: `Cc1cc(C)cc(-n2ncc(C(=O)O)n2)c1`
158 to 160 °C

Please give measured melting point of the following entry: CC1CC(C)(C)CC2(C1)NC(=O)NC2=O (centres undefined)
273 to 275 °C

Please give measured melting point of the following entry: `Cc1sc2ncnc(NN)c2c1C`
208 to 210 °C

Please give measured melting point of the following entry: `O=C(Nc1ccccc1)OCCBr`
64 to 66 °C

Please give measured melting point of the following entry: `Cc1ccccc1C(=O)NC1CCN(C(=O)CCl)CC1`
126 to 128 °C

Please give measured melting point of the following entry: `COc1cccc2[nH]cc(CCN)c12`
119 to 121 °C

Please give measured melting point of the following entry: `Cc1cc(C(=O)CCl)c(Cl)cc1F`
36 to 38 °C

Please give measured melting point of the following entry: CC(Cl)C(=O)NC1(C#N)CCCCC1 (centres undefined)
100 to 102 °C

###

Listed compounds paired with reported melting point

[[record]]
compound = "Cc1ccc(C#N)cc1S(N)(=O)=O"
result = "194 to 196 °C"

[[record]]
compound = "CC(=O)Nc1ccc2nc(N)sc2c1"
result = "217 to 219 °C"

[[record]]
compound = "OCc1ccccc1Oc1ccc(I)cc1"
result = "65 to 67 °C"

[[record]]
compound = "Cc1nnc2[nH]cc(C(=O)NN)cc1-2"
result = "289 to 291 °C"

[[record]]
compound = "O=C(O)CCCSc1nc2ccccc2s1"
result = "103 to 105 °C"


Please give measured melting point of the following entry: `Cc1sc2ncnc(SCC(=O)O)c2c1C`
215 to 217 °C

Please give measured melting point of the following entry: `NC(=O)NCc1ccccc1Cl`
149 to 151 °C

Please give measured melting point of the following entry: `CCOc1ccc(S(=O)(=O)N(CC)CC)cc1N`
119 to 121 °C

Please give measured melting point of the following entry: `Cc1nn(C)c(C)c1CC(N)=O`
175 to 177 °C

###

Attribute Measured: melting point

[[record]]
compound = "O=C1CCC(Cc2cccc(O)c2)O1 (stereo not drawn)"
attribute_measured = "melting point"
result = "102 to 104 °C"


Please give measured melting point of the following entry: COc1ccc(C(=O)O)cc1S(=O)(=O)N1CC(C)CC(C)C1 (stereo not drawn)
262 to 264 °C

Please give measured melting point of the following entry: `CC(C)(C)c1ncc(C(=O)O)s1`
204 to 206 °C

Please give measured melting point of the following entry: `O=c1[nH]cnc2ccc(Br)cc12`
267 to 271 °C

Please give measured melting point of the following entry: `N#CCCn1cc(C(=O)O)c(-c2cccc3ccccc23)n1`
179 to 181 °C

Please give measured melting point of the following entry: `Nc1ccc(F)c(NC(=O)c2ccccc2I)c1`
147 to 149 °C

Please give measured melting point of the following entry: `O=C(O)c1n[nH]cc1[N+](=O)[O-]`
223 to 225 °C

###

Listed compounds paired with reported melting point

Please give measured melting point of the following entry: `CS(=O)(=O)NCc1ccccc1`
49 to 51 °C

Please give measured melting point of the following entry: CCOC(C)c1ncc[nH]1 (centres undefined)
69 to 71 °C

Please give measured melting point of the following entry: `Nc1ccc(Oc2ccc(Cl)cc2)cc1C(=O)O`
177 to 179 °C

Please give measured melting point of the following entry: CC(Nc1ccc(C(=O)O)cc1[N+](=O)[O-])c1ccccn1 (centres undefined)
204 to 206 °C

Please give measured melting point of the following entry: `O=c1[nH]cc(Br)c2sccc12`
229 to 231 °C

Please give measured melting point of the following entry: `COCCCOc1ccc(C(=O)O)cc1`
112 to 114 °C

###

Listed compounds paired with reported melting point

In the examples that follow, each entry is paired with its recorded melting point.
[[record]]
compound = "Clc1ccc2[nH]c(C3CCCN3)nc2c1 (stereo not given)"
result = "124 to 126 °C"

[[record]]
compound = "NC1(C(F)(F)F)CCC(O)CC1 (stereo not given)"
result = "98 to 100 °C"

[[record]]
compound = "COC(=O)C1=C(C)NC(C)=C(C(=O)OC)C1C(=O)O"
result = "128 to 130 °C"

[[record]]
compound = "CC1CC(C)CN(c2ccc(C(=O)O)cc2[N+](=O)[O-])C1 (stereo not given)"
result = "167 to 169 °C"

[[record]]
compound = "COc1ccc(C(=O)O)cc1S(=O)(=O)NC(C)(C)C"
result = "218 to 220 °C"

[[record]]
compound = "c1cc2c(cn1)NCCN2"
result = "135 to 137 °C"

[[record]]
compound = "COCCOc1cc(C(=O)O)nc2ccccc12"
result = "179 to 181 °C"

[[record]]
compound = "Cc1cn(-c2ccccc2Cl)nc1C(=O)O"
result = "209 to 211 °C"

[[record]]
compound = "Cc1cc(Cl)cc2nc(Cl)oc12"
result = "59 to 61 °C"


Consider the record given below.
Please give measured melting point of the following entry: `O=C(O)c1cc2sc3ccccc3c2s1`
249 to 251 °C
